biological target: GPR84 (Homo sapiens); experiment: CHO-K1-based HitHunter cAMP inhibition assay; type: cell-based; conditions: wild type GPR84; CHO-K1 cells; forskolin 25 μM; read-out: cAMP pEC50 ± SEM (converted)
Sequence (Q9NQS5 whole entry): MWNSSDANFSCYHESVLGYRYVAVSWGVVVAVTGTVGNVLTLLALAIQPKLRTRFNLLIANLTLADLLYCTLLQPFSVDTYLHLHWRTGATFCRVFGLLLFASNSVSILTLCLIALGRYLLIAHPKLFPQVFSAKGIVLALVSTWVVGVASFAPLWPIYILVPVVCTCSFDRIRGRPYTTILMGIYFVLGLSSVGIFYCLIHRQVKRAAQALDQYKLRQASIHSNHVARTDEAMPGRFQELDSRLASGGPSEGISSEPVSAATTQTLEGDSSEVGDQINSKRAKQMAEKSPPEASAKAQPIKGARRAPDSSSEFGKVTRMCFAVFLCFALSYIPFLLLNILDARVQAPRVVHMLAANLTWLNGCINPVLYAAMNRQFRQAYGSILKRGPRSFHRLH
Listed below: EC50 values for each entry.
Answer format: numeric, nM implied, no suffix.

>>> df
                                 mol_smiles        assayed_target  measured_result
0   C#Cc1cc(CCCCc2cc(O)c[n+]([O-])c2)ccc1Cl  GPR84 (Homo sapiens)          0.00646
1  [O-][n+]1cc(O)cc(CCCCc2ccc(Cl)c(C(F)F)c2)c1  GPR84 (Homo sapiens)          0.00724
2      [O-][n+]1cc(O)cc(CCCCc2ccc(Cl)cc2)c1  GPR84 (Homo sapiens)           0.0204

Value lookup for EC50; key = `[O-][n+]1cc(O)cc(CCc2ccc(Cl)c(C(F)(F)F)c2)c1`
0.012

Value lookup for EC50; key = `[O-][n+]1cc(O)cc(CCCCc2ccc(Cl)c(C3CC3)c2)c1`
0.00398

Value lookup for EC50; key = `Cc1cc(CCCc2cc(O)c[n+]([O-])c2)ccc1Cl`
0.0126

Value lookup for EC50; key = `[O-][n+]1cc(O)cc(CCCCc2ccc(Cl)c(CO)c2)c1`
0.0355

###

Listed below: EC50 values for each entry.
molecular target: GPR84 N104A (GPR84-Gi2α fusion protein) (Homo sapiens, UniProt Q9NQS5, N104A); construct: FLAG (N); Gαi2-Cys352Ile (fusion partner) (C); expressed in transfected cells; experiment: [35S]GTPγS binding assay; format: biochemical; conditions: [35S]GTPγS; N104A
Sequence (Q9NQS5 whole entry N104A, the tested form may be a part): as the sequence (Q9NQS5 whole entry) above, with N104A counted along it
Answer format: numeric, nM implied, no suffix.

In [3]: df
Out[3]:
                                   compound  measured_result
0  [O-][n+]1cc(O)cc(CCc2ccc(Cl)c(C(F)(F)F)c2)c1 [OX04529]             3.98

Note: attention shifts to another entry.
GET /values?readout=EC50&system=GPR84 N104A (GPR84-Gi2α fusion protein) (Homo sapiens, UniProt Q9NQS5, N104A)&item= Cc1cc(CCCc2cc(O)c[n+]([O-])c2)ccc1Cl [OX04954]
11.7

###

molecular target: UniProt Q9NQS5; experiment: CHO-K1-based PathHunter β-arrestin-2 recruitment assay; format: cell-based; parameters: host or cells: CHO-K1; conditions: read-out: β-arrestin-2 %Emax ± SEM
measured-attribute: Emax (%)
Answer format: numeric, % implied, no suffix.

# count of solved cases: 2
In [3]: df
Out[3]:
                                   molecule  measured_attribute  display_unit  measured_result
0  CC(C)c1cc(CCCCc2cc(O)c[n+]([O-])c2)ccc1Cl [OX04964]                Emax             %                9
1  [O-][n+]1cc(O)cc(CCCCc2ccc(Cl)c(C(F)F)c2)c1 [OX04959]                Emax             %               24

Value lookup for Emax; key = [O-][n+]1cc(O)cc(CCCCc2ccc(Cl)c(CF)c2)c1 [OX04960]
45

Value lookup for Emax; key = CC1(c2cc(CCCCc3cc(O)c[n+]([O-])c3)ccc2Cl)CC1 [OX04966]
5

Value lookup for Emax; key = [O-][n+]1cc(O)cc(CCCCc2ccc(Cl)c(Cl)c2)c1 [OX04957]
46

Value lookup for Emax; key = [O-][n+]1cc(O)cc(CCCCc2ccc(Cl)c(Br)c2)c1 [OX04956]
34

Value lookup for Emax; key = [O-][n+]1cc(O)cc(CCc2ccc(Cl)c(C(F)(F)F)c2)c1 [OX04529]
10
